System: HEK-293T
Test: Incucyte cell viability with HEK293T; also: unitless GR value; below 1 slowed growth and below 0 cell loss
Assay type: toxicity, cell-based
Details: human, 24 h, 10 µM, compound concentration 10 uM, replicate number 1
Hi, to clarify the labels: T covers Growth Rate from 0.8 upward, F covers anything below 0.8.

Molecule	Label Value
CC1(C)c2cccc(C(=O)NO)c2CN1c1cnc(C(F)(F)F)cn1	F
Nc1ncnc2c1ncn2[C@@H]1O[C@H](C[C@@H](N)CC[C@H](N)C(=O)O)[C@@H](O)[C@H]1O [SINEFUNGIN]	T
COc1cc(O)c2c(c1)/C=C\C[C@H](O)[C@H](O)C(=O)/C=C\C[C@H](C)OC2=O	F
C=CC(=O)Nc1cccc(-c2c[nH]cc2CN(C)CCN)c1	F
CCN(c1cc(C#CCN2CCOCC2)cc(C(=O)NCc2c(C)cc(C)[nH]c2=O)c1C)[C@H]1CC[C@H](N(C)CCOC)CC1	F
CC(C)Nc1cc(-c2c[nH]c(C(=O)N[C@H](CO)c3cccc(Cl)c3)c2)c(Cl)cn1 [ULIXERTINIB]	T
N#Cc1ccc([C@H]2CCCC[C@H]2O)cc1C(F)(F)F	T
